Below is a list of entries, each paired with its recorded IC50 value.
Target: EGFR V3 (Homo sapiens, UniProt P00533, DELINS30-297G)
Construct: expressed in transfected cells; host or cells: BaF3 (murine pro-B), retroviral pMXs-IRES-Blasticidin
Sequence (P00533 with tags, fused parts or gaps DELINS30-297G): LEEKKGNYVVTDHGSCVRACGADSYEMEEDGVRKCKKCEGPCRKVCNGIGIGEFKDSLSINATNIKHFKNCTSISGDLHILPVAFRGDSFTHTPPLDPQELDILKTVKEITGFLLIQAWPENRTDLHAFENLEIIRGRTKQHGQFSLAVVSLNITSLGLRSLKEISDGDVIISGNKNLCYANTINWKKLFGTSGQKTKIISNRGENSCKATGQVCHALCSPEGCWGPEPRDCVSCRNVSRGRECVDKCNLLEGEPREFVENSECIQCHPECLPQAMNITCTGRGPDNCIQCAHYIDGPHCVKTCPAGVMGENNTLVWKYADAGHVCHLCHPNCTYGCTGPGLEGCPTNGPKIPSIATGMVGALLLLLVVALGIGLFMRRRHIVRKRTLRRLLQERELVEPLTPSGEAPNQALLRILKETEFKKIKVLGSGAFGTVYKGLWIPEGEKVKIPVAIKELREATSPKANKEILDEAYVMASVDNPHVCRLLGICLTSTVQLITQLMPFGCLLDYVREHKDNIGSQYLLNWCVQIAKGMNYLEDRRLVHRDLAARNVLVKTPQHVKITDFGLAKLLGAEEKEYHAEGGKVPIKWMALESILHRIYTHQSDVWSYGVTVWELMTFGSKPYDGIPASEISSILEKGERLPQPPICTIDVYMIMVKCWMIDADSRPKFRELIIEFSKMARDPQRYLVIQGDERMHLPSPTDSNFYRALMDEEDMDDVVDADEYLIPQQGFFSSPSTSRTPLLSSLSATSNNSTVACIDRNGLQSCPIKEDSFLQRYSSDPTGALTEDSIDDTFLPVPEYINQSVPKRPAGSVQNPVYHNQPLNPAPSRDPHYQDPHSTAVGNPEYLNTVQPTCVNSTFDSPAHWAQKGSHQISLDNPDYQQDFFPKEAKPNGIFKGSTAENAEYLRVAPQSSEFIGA
Test: BaF3 cell proliferation assay, EGFR V3 (Table A)
Type: cell-based
Details: potency code, 3 days, CellTiterGlo, read-out: EGFR V3 (Activity for Inhibiting EGFR)
Method: Retroviral Production: EGFR mutants were subcloned into pMXs-IRES-Blasticidin (RTV-016, Cell Biolabs, San Diego, Calif.). Retroviral expression vector retrovirus was produced by transient transfection of HEK 293T cells with the retroviral EGFR mutant expression vector pMXs-IRES-Blasticidin (RTV-016, Cell Biolabs), pCMV-Gag-Pol vector and pCMV-VSV-G-Envelope vector. […] EC50 values were determined with the same application.

molecule: C=CC(=O)Nc1cc2c(Nc3ccc(OCc4ccccn4)cc3)ncnc2cc1OCCN1CCC(N(C)C)CC1
val: 50 to 100 nM

### Prompt Which measured IC50 value corresponds to C=CC(=O)Nc1cc2c(Nc3ccc(OCc4ccccn4)c(Cl)c3)ncnc2cc1N(C)C1CCN(C)C1 (centres unmarked) ?
### Response 200 to 300 nM

### Prompt Field request: IC50 | item: C=CC(=O)Nc1cc2c(Nc3ccc(Oc4ccc(Cl)c(F)c4)cc3)ncnc2cc1OCCN1CCOCC1
### Response 50 to 100 nM

### Prompt # get_value(readout='IC50', item= C=CC(=O)Nc1cc2c(Nc3ccc(CC(=O)c4ccccn4)c(Cl)c3)ncnc2cc1O[C@@H]1CCN(C)C1 )
### Response 100 to 200 nM

### Prompt So what does the record say about IC50 for C=CC(=O)Nc1cc2c(Nc3ccc(OCc4ccccn4)c(Cl)c3)ncnc2cc1OCCn1ccnc1 ?
### Response 50 to 100 nM

### Prompt Need IC50 of C=CC(=O)Nc1cc2c(Nc3ccc(Oc4cccnc4)cc3)ncnc2cc1OCCN1CCOCC1 , thanks.
### Response 100 to 200 nM

The values you see were collected from patent US11034672B1.
